# target or system: 5-HT1A receptors (Rattus norvegicus, UniProt P19327)
# Construct: from tissue; host or cells: whole animal: male Sprague-Dawley rats (post-synaptic 5-HT1A receptors)
# Sequence (P19327 whole entry): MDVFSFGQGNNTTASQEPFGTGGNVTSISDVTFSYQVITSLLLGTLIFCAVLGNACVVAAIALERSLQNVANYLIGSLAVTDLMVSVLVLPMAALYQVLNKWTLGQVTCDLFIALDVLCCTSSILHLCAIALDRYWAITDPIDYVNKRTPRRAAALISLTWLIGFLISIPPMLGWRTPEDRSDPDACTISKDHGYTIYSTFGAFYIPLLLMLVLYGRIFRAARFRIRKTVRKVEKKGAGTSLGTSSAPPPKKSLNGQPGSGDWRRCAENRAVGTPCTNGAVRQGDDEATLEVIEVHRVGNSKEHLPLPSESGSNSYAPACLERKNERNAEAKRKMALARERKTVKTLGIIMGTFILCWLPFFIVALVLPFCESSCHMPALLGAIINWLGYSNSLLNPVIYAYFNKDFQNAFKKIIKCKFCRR
# assay name: Inhibition of stereotypy (rhythmic forepaw treading) induced by 8-OH-DPAT in rats (post-synaptic antagonism)
# Assay type: in vivo
# experimental setup: rat, 10 mg/kg p.o., 4 h before 8-OH-DPAT (1 mg/kg s.c.)
quantity measured: inhibition at 10 mg/kg (%)
Expressed in %, but write only the number.

Return reported inhibition at 10 mg/kg. Input compound: O=C(C1CCCC1)N1c2ccccc2CCC1CN1CCN(c2cccc3[nH]ccc23)CC1 (stereo not shown)
100

Return reported inhibition at 10 mg/kg. Input compound: O=C(C1CCCCC1)N1c2ccc(F)cc2CCC1CN1CCN(c2cccc3[nH]ccc23)CC1 (stereo not shown)
92

Return reported inhibition at 10 mg/kg. Input compound: O=C(C1CC=CCC1)N1c2ccccc2CCC1CN1CCN(c2cccc3[nH]ccc23)CC1 (stereo not shown)
100

Return reported inhibition at 10 mg/kg. Input compound: Cc1[nH]c2cccc(N3CCN(CC4CCc5ccccc5N4C(=O)C4CCCCC4)CC3)c2c1C (stereo not shown)
100
